Data provenance is ChEMBL document CHEMBL4411322.

# Target or test system: Integrin alpha-V/beta-8 (Homo sapiens, UniProt P06756+P26012)
# Sequence (P06756 31-889 limits assumed): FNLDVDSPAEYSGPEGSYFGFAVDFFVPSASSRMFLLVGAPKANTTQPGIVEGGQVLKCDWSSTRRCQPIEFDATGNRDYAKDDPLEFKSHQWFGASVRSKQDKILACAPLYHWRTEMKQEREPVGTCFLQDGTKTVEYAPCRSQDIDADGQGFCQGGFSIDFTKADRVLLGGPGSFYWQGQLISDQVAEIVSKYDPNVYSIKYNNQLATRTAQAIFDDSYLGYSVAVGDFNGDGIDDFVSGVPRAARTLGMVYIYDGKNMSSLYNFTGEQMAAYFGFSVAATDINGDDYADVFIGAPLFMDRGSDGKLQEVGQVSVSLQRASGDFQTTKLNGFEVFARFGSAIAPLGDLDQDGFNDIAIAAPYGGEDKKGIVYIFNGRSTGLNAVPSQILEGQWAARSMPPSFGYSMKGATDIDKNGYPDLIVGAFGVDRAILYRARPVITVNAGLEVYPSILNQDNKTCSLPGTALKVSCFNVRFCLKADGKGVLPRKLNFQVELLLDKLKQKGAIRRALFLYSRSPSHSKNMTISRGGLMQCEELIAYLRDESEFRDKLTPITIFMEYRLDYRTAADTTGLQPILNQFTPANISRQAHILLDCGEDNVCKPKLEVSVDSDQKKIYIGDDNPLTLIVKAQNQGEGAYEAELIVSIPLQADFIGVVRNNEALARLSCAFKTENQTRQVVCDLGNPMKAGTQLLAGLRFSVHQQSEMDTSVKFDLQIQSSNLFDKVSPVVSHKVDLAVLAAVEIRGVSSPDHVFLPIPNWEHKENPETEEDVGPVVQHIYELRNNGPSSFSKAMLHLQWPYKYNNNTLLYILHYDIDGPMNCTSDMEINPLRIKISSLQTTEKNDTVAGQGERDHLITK
# Sequence (P06756 891-1048 limits assumed): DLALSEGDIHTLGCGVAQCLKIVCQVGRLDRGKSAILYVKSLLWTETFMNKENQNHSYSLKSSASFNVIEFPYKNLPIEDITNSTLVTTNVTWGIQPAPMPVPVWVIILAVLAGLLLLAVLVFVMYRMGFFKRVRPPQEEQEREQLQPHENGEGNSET
# Sequence (P26012 43-769 limits assumed): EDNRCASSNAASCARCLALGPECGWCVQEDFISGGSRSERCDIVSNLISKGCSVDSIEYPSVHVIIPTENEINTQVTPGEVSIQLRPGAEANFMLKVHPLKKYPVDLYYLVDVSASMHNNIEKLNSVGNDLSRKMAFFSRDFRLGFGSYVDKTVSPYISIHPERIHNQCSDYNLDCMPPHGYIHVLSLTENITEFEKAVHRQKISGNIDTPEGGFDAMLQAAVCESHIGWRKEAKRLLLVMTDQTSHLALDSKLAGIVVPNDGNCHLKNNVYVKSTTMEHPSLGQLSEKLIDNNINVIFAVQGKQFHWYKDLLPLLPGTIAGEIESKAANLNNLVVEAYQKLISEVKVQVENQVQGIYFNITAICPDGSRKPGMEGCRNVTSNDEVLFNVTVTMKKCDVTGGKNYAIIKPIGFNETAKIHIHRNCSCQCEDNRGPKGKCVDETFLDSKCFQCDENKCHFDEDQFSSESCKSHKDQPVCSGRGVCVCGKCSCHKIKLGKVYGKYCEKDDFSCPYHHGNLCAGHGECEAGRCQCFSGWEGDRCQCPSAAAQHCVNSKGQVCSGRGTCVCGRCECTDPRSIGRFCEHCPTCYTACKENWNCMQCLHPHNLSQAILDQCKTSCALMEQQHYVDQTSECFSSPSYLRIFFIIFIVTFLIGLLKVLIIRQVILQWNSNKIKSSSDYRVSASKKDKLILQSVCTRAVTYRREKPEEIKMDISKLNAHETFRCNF
# Assay comment: Inhibition of LAP binding to human integrin alphavbeta8 receptor after 1 hr by solid-phase binding assay
# Type: protein-complex assay
# Measurement conditions: read-out: IC50
pIC50: −log10 of the molar value. Non-standard residues stand in square brackets, D forms with d. Residues, ends and D or L forms follow the SMILES beside them.
Readout kind: pIC50

Look over these answered cases.
[
  {
    "Compound": "CC[C@H](C)[C@@H]1NC(=O)[C@H](C)NC(=O)[C@@H]2CCCN2C(=O)[C@H]2CCCN2C(=O)[C@H](CC(C)C)NC(=O)[C@H](CC(=O)O)NC(=O)CNC(=O)[C@H](CCCNC(=N)N)NC1=O",
    "pIC50": 8.81
  },
  {
    "Compound": "CC(C)C[C@@H]1NC(=O)CNC(=O)[C@@H]2CCCN2C(=O)[C@H]2CCCN2C(=O)[C@H](CC(C)C)NC(=O)[C@H](CC(=O)O)NC(=O)CNC(=O)[C@H](CCCNC(=N)N)NC1=O (cyclo(RGDL[dP]PGL))",
    "pIC50": 8.35
  }
]

(1) CC(C)C[C@@H]1NC(=O)[C@H](C)NC(=O)[C@H](CCCCN)N(C)C(=O)[C@H]2CCCN2C(=O)[C@H](CC(C)C)NC(=O)[C@H](CC(=O)O)NC(=O)CNC(=O)[C@H](CCCNC(=N)N)NC1=O
(2) CC(C)C[C@@H]1NC(=O)[C@H](C)NC(=O)[C@@H]2CCCN2C(=O)[C@H]2CCCN2C(=O)[C@H](CC(C)C)NC(=O)[C@H](CC(=O)O)NC(=O)CNC(=O)[C@H](CCCNC(=N)N)NC1=O (cyclo(RGDL[dP]PAL))
(3) CC(C)C[C@@H]1NC(=O)[C@H](C)NC(=O)[C@@H]2CCCN2C(=O)[C@H]2CCCN2C(=O)[C@H](CC(C)C)NC(=O)[C@H](CC(=O)O)NC(=O)CNC(=O)[C@H](CCCNC(=N)N)NC(=O)[C@H](C)NC(=O)[C@H](C)NC1=O
QUERY: // sort entries: pIC50, high to low Answer by naming the labels in the order asked.
RESULT: 2, 1, 3
(2: 8.88, 1: 7.36, 3: 6.57)

----------
# Species on record: Homo sapiens
# Assay comment: Selectivity ratio of IC50 for human integrin alphavbeta6 receptor to IC50 for human integrin alphavbeta8 receptor
Non-standard residues stand in square brackets, D forms with d. Residues, ends and D or L forms follow the SMILES beside them.
Readout kind: Ratio IC50

(I) CC(C)C[C@@H]1NC(=O)[C@@H]2CCCN2C(=O)[C@H]2CCCN2C(=O)[C@H](CC(C)C)NC(=O)[C@H](CC(=O)O)NC(=O)CNC(=O)[C@H](CCCNC(=N)N)NC(=O)[C@H](C)NC(=O)[C@H](C)NC(=O)[C@H](C)NC1=O
(II) CC(C)C[C@@H]1NC(=O)[C@H](CC(=O)O)NC(=O)[C@H](CO)NC(=O)[C@H](CCCNC(=N)N)NC(=O)[C@H](Cc2ccccc2)NC(=O)[C@H](C)NC(=O)[C@@H]2CCCN2C(=O)[C@H]2CCCN2C1=O
QUERY: Choose between I and II : whose measured Ratio IC50 value is numerically larger? Please identify the chosen entry by its label.
RESULT: II

(a) CC(C)C[C@@H]1NC(=O)[C@H](C)NC(=O)[C@H](C)NC(=O)[C@@H]2CCCN2C(=O)[C@H]2CCCN2C(=O)[C@H](CC(C)C)NC(=O)[C@H](CC(=O)O)NC(=O)[C@H]([C@@H](C)O)NC(=O)[C@H](CCCNC(=N)N)NC(=O)[C@H](C)NC1=O
(b) CC(=O)NCCCC[C@@H]1C(=O)N2CCC[C@H]2C(=O)NCC(=O)N[C@@H](CC(C)C)C(=O)N[C@@H](CCCNC(=N)N)C(=O)NCC(=O)N[C@@H](CC(=O)O)C(=O)N[C@@H](CC(C)C)C(=O)N1C
QUERY: Choose between a and b : whose measured Ratio IC50 value is numerically larger? Please identify the chosen entry by its label.
RESULT: a

(1) CC(C)C[C@@H]1NC(=O)[C@H](CC(=O)O)NC(=O)CNC(=O)[C@H](CCCNC(=N)N)NC(=O)[C@H](CC(=O)O)NC(=O)[C@H](C)NC(=O)[C@@H]2CCCN2C(=O)[C@H]2CCCN2C1=O
(2) CC(C)C[C@@H]1NC(=O)[C@H](C)NC(=O)[C@@H]2CCCN2C(=O)[C@H]2CCCN2C(=O)[C@H](CC(C)C)NC(=O)[C@H](CC(=O)O)NC(=O)CNC(=O)[C@H](CCCNC(=N)N)NC1=O (cyclo(RGDL[dP]PAL))
QUERY: Choose between 1 and 2 : whose measured Ratio IC50 value is numerically larger? Please identify the chosen entry by its label.
RESULT: 2
(2: 24, 1: 12)

----------
# Target or test system: Integrin alpha-V/beta-6 (Homo sapiens, UniProt P06756+P18564)
# Sequence (P06756 31-889 limits assumed): as the sequence (P06756 31-889 limits assumed) above
# Sequence (P06756 891-1048 limits assumed): as the sequence (P06756 891-1048 limits assumed) above
# Sequence (P18564 22-788 limits assumed): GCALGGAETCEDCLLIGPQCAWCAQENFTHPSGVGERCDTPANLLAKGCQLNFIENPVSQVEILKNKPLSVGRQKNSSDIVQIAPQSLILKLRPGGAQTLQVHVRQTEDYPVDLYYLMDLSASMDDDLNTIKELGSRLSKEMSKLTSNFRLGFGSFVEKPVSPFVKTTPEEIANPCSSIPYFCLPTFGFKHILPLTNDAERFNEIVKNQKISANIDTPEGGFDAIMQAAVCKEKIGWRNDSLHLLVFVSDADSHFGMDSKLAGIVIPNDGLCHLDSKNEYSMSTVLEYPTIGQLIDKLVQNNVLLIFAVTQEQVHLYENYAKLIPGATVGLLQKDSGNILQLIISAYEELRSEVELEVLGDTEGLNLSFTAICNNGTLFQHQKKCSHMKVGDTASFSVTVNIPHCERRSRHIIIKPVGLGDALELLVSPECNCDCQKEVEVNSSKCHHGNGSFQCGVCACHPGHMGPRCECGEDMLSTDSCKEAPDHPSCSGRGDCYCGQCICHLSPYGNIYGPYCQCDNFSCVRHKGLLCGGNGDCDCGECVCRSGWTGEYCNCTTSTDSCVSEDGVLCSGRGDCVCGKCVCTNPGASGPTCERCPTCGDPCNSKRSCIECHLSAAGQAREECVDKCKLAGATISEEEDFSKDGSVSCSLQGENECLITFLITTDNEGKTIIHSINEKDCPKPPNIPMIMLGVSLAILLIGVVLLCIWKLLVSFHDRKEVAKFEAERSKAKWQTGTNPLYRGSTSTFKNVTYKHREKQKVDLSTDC
# Assay comment: Inhibition of LAP binding to human integrin alphavbeta6 receptor after 1 hr by solid-phase binding assay
# Format: protein-complex assay
# Measurement conditions: read-out: IC50
Non-standard residues stand in square brackets, D forms with d. Residues, ends and D or L forms follow the SMILES beside them.
Readout kind: IC50 (µM)

Look over these answered cases.
[
  {
    "Molecule": "CCCC[C@@H]1NC(=O)[C@H](CC(=O)O)NC(=O)CNC(=O)[C@H](CCCNC(=N)N)NC(=O)[C@H](Cc2ccccc2)NC(=O)[C@H](C)NC(=O)[C@@H]2CCCN2C(=O)[C@H]2CCCN2C1=O",
    "IC50, µM": 0.142
  },
  {
    "Molecule": "CC(C)C[C@@H]1NC(=O)[C@H](C)NC(=O)[C@@H]2CCCN2C(=O)[C@@H](C(C)C)N(C)C(=O)[C@H](CC(C)C)NC(=O)[C@H](CC(=O)O)NC(=O)CNC(=O)[C@H](CCCNC(=N)N)NC1=O",
    "IC50, µM": 0.031
  },
  {
    "Molecule": "CC(C)C[C@@H]1NC(=O)[C@H](CC(=O)O)NC(=O)CNC(=O)[C@H](CCCNC(=N)N)NC(=O)[C@H](c2ccccc2)NC(=O)[C@H](C)NC(=O)[C@@H]2CCCN2C(=O)[C@H]2CCCN2C1=O",
    "IC50, µM": 0.0296
  }
]

(1) CC(C)C[C@@H]1NC(=O)[C@H](C)NC(=O)[C@@H]2CCCN2C(=O)[C@H]2CCCN2C(=O)[C@H](CC(C)C)NC(=O)[C@H](CC(=O)O)NC(=O)CNC(=O)[C@H](CCCNC(=N)N)NC1=O (cyclo(RGDL[dP]PAL))
(2) CC(C)C[C@@H]1NC(=O)[C@H](C)NC(=O)[C@@H]2CCCN2C(=O)[C@@H](CC(C)C)N(C)C(=O)[C@H](CC(C)C)NC(=O)[C@H](CC(=O)O)NC(=O)CNC(=O)[C@H](CCCNC(=N)N)NC1=O
(3) CC(C)C[C@@H]1NC(=O)[C@@H]2CCCN2C(=O)[C@H]2CCCN2C(=O)[C@H](CC(C)C)NC(=O)[C@H](CC(=O)O)NC(=O)CNC(=O)[C@H](CCCNC(=N)N)NC(=O)[C@H](C)NC(=O)[C@H](C)NC(=O)[C@H](C)NC1=O
QUERY: // sort entries: IC50, high to low Answer by naming the labels in the order asked.
RESULT: 3, 2, 1
(3: 0.889 µM, 2: 0.095 µM, 1: 0.0318 µM)

(A) CC(C)C[C@H]1NC(=O)[C@H](CC(=O)O)NC(=O)CNC(=O)[C@H](CCCNC(=N)N)NC(=O)[C@H](Cc2ccccc2)NC(=O)[C@H](C)NC(=O)[C@@H]2CCCN2C(=O)[C@H]2CCCN2C1=O
(B) CC(C)C[C@@H]1NC(=O)[C@H](CC(=O)O)NC(=O)[C@H]([C@@H](C)O)NC(=O)[C@H](CCCNC(=N)N)NC(=O)[C@H](C)NC(=O)[C@@H]2CCCN2C(=O)[C@H]2CCCN2C(=O)[C@H](CC(C)C)NC(=O)[C@H](C)NC(=O)[C@H](C)NC1=O
QUERY: Choose between A and B : whose measured IC50 value is numerically larger? Please identify the chosen entry by its label.
RESULT: A
(A: 0.559 µM, B: 0.264 µM)

(a) CC(=O)NC1C[C@H]2C(=O)NCC(=O)N[C@@H](CC(C)C)C(=O)N[C@@H](CCCNC(=N)N)C(=O)NCC(=O)N[C@@H](CC(=O)O)C(=O)N[C@@H](CC(C)C)C(=O)N3CCC[C@@H]3C(=O)N2C1 (stereo partly drawn)
(b) CC(C)C[C@@H]1NC(=O)[C@H](C)NC(=O)[C@H](C)NC(=O)[C@H](CC(C)C)NC(=O)[C@H](CC(=O)O)NC(=O)CNC(=O)[C@H](CCCNC(=N)N)NC(=O)[C@@H]2CCCN2C(=O)[C@H]2CCCN2C(=O)[C@H](C)NC1=O
(c) CC(C)C[C@@H]1NC(=O)[C@H](C)NC(=O)[C@H](CCCCN)N(C)C(=O)[C@H]2CCCN2C(=O)[C@H](CC(C)C)NC(=O)[C@H](CC(=O)O)NC(=O)CNC(=O)[C@H](CCCNC(=N)N)NC1=O
QUERY: Order the records, beginning with the lowest IC50 and ending with the highest. Answer by naming the labels in the order asked.
RESULT: b, c, a
(b: 0.0145 µM, c: 0.062 µM, a: 0.223 µM)

(P) CC(C)C[C@@H]1NC(=O)[C@H](CC(=O)O)NC(=O)CNC(=O)[C@H](CCCNC(=N)N)NC(=O)[C@H](Cc2c[nH]c3ccccc23)NC(=O)[C@H](C)NC(=O)[C@@H]2CCCN2C(=O)[C@H]2CCCN2C1=O
(Q) CCCCCCNC1C[C@H]2C(=O)NCC(=O)N[C@@H](CC(C)C)C(=O)N[C@@H](CCCNC(=N)N)C(=O)NCC(=O)N[C@@H](CC(=O)O)C(=O)N[C@@H](CC(C)C)C(=O)N3CCC[C@@H]3C(=O)N2C1 (stereo partly drawn)
(R) CC(C)C[C@@H]1NC(=O)[C@H](CC(=O)O)NC(=O)CNC(=O)[C@H](CCCNC(=N)N)NC(=O)[C@H](C)NC(=O)[C@H](C)NC(=O)[C@@H]2CCCN2C(=O)[C@H]2CCCN2C1=O
(S) CC(C)C[C@@H]1NC(=O)[C@H](CC(=O)O)NC(=O)CNC(=O)[C@H](CCCNC(=N)N)NC(=O)[C@@H](c2ccccc2)NC(=O)[C@H](C)NC(=O)[C@@H]2CCCN2C(=O)[C@H]2CCCN2C1=O
QUERY: Order the records, beginning with the lowest IC50 and ending with the highest. Answer by naming the labels in the order asked.
RESULT: S, P, R, Q
(S: 0.0484 µM, P: 0.073 µM, R: 0.114 µM, Q: 0.204 µM)

(1) CC(C)C[C@@H]1NC(=O)[C@H](CC(=O)O)NC(=O)CNC(=O)[C@H](CCCNC(=N)N)NC(=O)[C@H](CC(=O)O)NC(=O)[C@H](C)NC(=O)[C@@H]2CCCN2C(=O)[C@H]2CCCN2C1=O
(2) CC[C@H](C)[C@@H]1NC(=O)[C@H](CC(=O)O)NC(=O)CNC(=O)[C@H](CCCNC(=N)N)NC(=O)[C@H](Cc2ccccc2)NC(=O)[C@H](C)NC(=O)[C@@H]2CCCN2C(=O)[C@H]2CCCN2C1=O
(3) CC(C)C[C@@H]1NC(=O)[C@H](CC(=O)O)NC(=O)[C@H]([C@@H](C)O)NC(=O)[C@H](CCCNC(=N)N)NC(=O)[C@H](Cc2ccccc2)NC(=O)[C@H](C)NC(=O)[C@@H]2CCCN2C(=O)[C@H]2CCCN2C1=O
QUERY: Order the records, beginning with the lowest IC50 and ending with the highest. Answer by naming the labels in the order asked.
RESULT: 1, 3, 2
